Source listed as patent US20220378931A1.

Measured pKi, listed per entry for reference.
TARGET_SYSTEM: T1, human insulin receptor isoform A with C-terminal C9 tag (human, UniProt P06213 28-1382)
T1 construct: membranes of stably transfected HEK293 cells; also called hIR-A; human IR-A
EXPERIMENTAL_DETAILS: 125I-insulin competition SPA, hIR-A membranes, 0.001% NP-40
Please express pKi as -log10 of the molar concentration.

BINDER	pKi
INS Analog 27 (other, single-chain insulin B-L2-A-L1-VHH fusion; also called Ex. 27) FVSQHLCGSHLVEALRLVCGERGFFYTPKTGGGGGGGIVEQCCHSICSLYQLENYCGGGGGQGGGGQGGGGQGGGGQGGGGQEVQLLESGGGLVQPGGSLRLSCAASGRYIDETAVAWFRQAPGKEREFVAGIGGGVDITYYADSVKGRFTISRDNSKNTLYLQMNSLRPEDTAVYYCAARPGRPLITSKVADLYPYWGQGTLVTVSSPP	7.30

*Q* # pKi lookup, item INS Analog 25 (other, single-chain insulin B-L2-A-L1-VHH fusion; also called Ex. 25) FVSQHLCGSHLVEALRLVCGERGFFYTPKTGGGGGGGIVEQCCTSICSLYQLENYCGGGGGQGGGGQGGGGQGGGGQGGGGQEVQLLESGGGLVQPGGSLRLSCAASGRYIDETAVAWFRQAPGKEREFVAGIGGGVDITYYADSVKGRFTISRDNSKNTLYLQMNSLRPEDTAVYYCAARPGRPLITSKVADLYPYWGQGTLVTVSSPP
*A* 6.76
